The following variants are shown together with reported enrichment values.
B1: peptide HD2 (from tick evasin EVA4) / CCL1 (biotinylated, synthetic) (parent)
chain 1: EEDDYTAYAPLTCYFT
chain 2: KSMQVPFSRCCFSFAEQEIPLRAILCYRNTSSICSNEGLIFKLKRGKEACALDTVGWVQRHRKMLRHCPSKRK

# Variants of: B1
# setupConditions: with CCL1 (biotinylated, synthetic); scale: log2
measurementLabel: enrichment

# variant, recordedMeasurement
rows = [
    ("chain 1 D4T", -7.11),
    ("chain 1 Y14P", -8.08),
    ("chain 1 Y5E", -2.71),
    ("chain 1 P10R", -8.31),
    ("chain 1 P10I", -7.67),
    ("chain 1 D3C", -9.13),
    ("chain 1 P10Y", -7.79),
    ("chain 1 D4R", -6.32),
    ("chain 1 E2K", -4.38),
    ("chain 1 Y14N", -6.13),
    ("chain 1 D4K", -6.11),
    ("chain 1 Y5P", -5.96),
    ("chain 1 Y8R", -7.41),
    ("chain 1 Y5D", -6.28),
    ("chain 1 C13L", -10.5),
    ("chain 1 D3R", -6.68),
    ("chain 1 A9H", -7.44),
    ("chain 1 Y5T", -6.9),
    ("chain 1 Y5H", -6.55),
    ("chain 1 P10C", -8.95),
    ("chain 1 Y5C", -8.4),
    ("chain 1 A9K", -5.86),
    ("chain 1 A9D", -7.46),
    ("chain 1 Y5M", -6.87),
    ("chain 1 Y8T", -7.71),
    ("chain 1 D4G", -5.45),
    ("chain 1 A7C", -9.07),
    ("chain 1 P10H", -7.18),
    ("chain 1 Y8E", -5.41),
    ("chain 1 Y5K", -4.83),
    ("chain 1 C13I", -7.4),
    ("chain 1 L11P", -7.33),
    ("chain 1 E2C", -9.24),
    ("chain 1 D4C", -8.47),
]
